- study-target: HCN4 (Homo sapiens, UniProt Q9Y3Q4)
- Sequence (Q9Y3Q4 whole entry, species assumed): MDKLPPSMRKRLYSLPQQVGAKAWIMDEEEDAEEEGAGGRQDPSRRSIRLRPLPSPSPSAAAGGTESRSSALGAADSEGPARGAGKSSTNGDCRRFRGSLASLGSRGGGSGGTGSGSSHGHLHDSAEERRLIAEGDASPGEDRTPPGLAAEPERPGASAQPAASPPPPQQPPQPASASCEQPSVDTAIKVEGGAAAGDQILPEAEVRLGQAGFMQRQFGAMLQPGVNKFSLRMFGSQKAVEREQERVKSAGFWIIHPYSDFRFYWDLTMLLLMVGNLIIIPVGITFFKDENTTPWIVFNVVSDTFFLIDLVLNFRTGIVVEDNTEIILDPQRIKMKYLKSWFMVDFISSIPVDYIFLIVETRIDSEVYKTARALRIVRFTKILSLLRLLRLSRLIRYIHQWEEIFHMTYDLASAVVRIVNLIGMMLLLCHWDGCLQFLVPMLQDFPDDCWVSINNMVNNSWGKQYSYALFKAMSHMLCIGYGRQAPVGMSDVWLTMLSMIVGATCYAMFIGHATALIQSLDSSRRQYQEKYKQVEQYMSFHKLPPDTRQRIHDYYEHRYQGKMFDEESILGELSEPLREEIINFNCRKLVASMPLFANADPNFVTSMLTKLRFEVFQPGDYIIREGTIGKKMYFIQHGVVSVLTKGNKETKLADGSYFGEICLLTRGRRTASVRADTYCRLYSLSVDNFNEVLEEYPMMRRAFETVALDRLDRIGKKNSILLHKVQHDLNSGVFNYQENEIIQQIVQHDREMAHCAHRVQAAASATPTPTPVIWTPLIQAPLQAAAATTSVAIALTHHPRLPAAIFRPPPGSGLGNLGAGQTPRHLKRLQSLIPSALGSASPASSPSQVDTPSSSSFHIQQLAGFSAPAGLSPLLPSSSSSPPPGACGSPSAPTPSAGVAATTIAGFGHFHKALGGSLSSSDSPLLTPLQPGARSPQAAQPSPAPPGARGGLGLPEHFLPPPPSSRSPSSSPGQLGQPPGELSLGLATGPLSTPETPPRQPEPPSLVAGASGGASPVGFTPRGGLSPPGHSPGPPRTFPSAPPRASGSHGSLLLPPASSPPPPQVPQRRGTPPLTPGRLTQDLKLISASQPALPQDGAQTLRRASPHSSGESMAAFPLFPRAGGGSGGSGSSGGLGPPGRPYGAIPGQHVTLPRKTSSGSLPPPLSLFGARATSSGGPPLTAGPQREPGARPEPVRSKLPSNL
- measurement-description: HCN4 assay using PatchXpress 7000A (PX protocol, Example 25)
- assay-context: room temperature
Counter-ions that a name gives are not always drawn.
measured-attribute: IC50

Query block: Find IC50 for Cc1cccc(C[C@H](N)c2ncccc2-c2noc3ccccc23)n1 [Example 11, hydrochloride] on HCN4 (Homo sapiens, UniProt Q9Y3Q4) and write it down.
Result block: 22.9 µM

Query block: Name the recorded IC50 of N[C@@H](Cc1ncccn1)c1ncccc1-c1noc2ccccc12 [Example 20] , assay system HCN4 (Homo sapiens, UniProt Q9Y3Q4).
Result block: > 30 µM

Query block: Please respond with reported IC50 (system HCN4 (Homo sapiens, UniProt Q9Y3Q4)) for NC(=O)c1cccc(C[C@H](N)c2ncccc2-c2noc3ccccc23)n1 [Example 17] .
Result block: > 30 µM

Query block: Provide HCN4 (Homo sapiens, UniProt Q9Y3Q4) IC50 reading for N[C@@H](Cc1cccc(OCCO)n1)c1ncccc1-c1noc2ccccc12 [Example 19] .
Result block: > 30 µM

Query block: State, for HCN4 (Homo sapiens, UniProt Q9Y3Q4), measured IC50 of the molecule listed here: Cn1nc(-c2ccccc2[C@@H](N)Cc2ccccn2)c2ccncc21 [Example 8, hydrochloride]
Result block: > 30 µM

Query block: # return IC50 for Cc1ccc(C#N)nc1C[C@H](N)c1ncccc1-c1noc2ccccc12 [Example 4, hydrochloride] , test system: HCN4 (Homo sapiens, UniProt Q9Y3Q4)
Result block: 5.2 µM

Query block: Print HCN4 (Homo sapiens, UniProt Q9Y3Q4) IC50 for N#Cc1cccc(C[C@H](N)c2ncccc2-c2noc3ccccc23)n1 [Example 10, hydrochloride] .
Result block: 16.7 µM

Query block: Give HCN4 (Homo sapiens, UniProt Q9Y3Q4) IC50 for the following molecule: N[C@@H](Cc1ncccc1F)c1ncccc1-c1noc2ccccc12 [Example 23, hydrochloride]
Result block: 9.5 µM

Query block: Jot down IC50 (HCN4 (Homo sapiens, UniProt Q9Y3Q4)) of CN(C)C(=O)c1cccc(C[C@H](N)c2ncccc2-c2noc3ccccc23)n1 [Example 18] .
Result block: > 30 µM

Query block: Fill in: IC50 on HCN4 (Homo sapiens, UniProt Q9Y3Q4), entry CN(C)C(=O)CCc1cccc(C[C@H](N)c2ncccc2-c2noc3ccccc23)n1 [Example 21, hydrochloride]
Result block: > 30 µM

Query block: Determine reported IC50 for Cc1cccc(C[C@H](N)c2ccccc2-c2nn(C)c3cnccc23)n1 [Example 15, hydrochloride] ; test system: HCN4 (Homo sapiens, UniProt Q9Y3Q4).
Result block: > 30 µM

Query block: Give measured IC50 for Cn1nc(-c2ccccc2[C@@H](N)Cc2cccc(C#N)n2)c2ccncc21 [Example 16] (HCN4 (Homo sapiens, UniProt Q9Y3Q4)).
Result block: > 30 µM

Query block: Provide IC50, system HCN4 (Homo sapiens, UniProt Q9Y3Q4), entry Cc1ccc(-c2noc3ccccc23)c([C@@H](N)Cc2ccccn2)n1 [Example 9, hydrochloride]
Result block: > 30 µM

Query block: Report measured IC50 on HCN4 (Homo sapiens, UniProt Q9Y3Q4); entry: N[C@@H](Cc1ccccn1)c1ncccc1-c1noc2ccccc12 [Example 6, hydrochloride]
Result block: > 30 µM

Query block: Enter measured IC50, system HCN4 (Homo sapiens, UniProt Q9Y3Q4), for the molecule shown: Cn1nc(-c2cccnc2[C@@H](N)Cc2ccccn2)c2ccccc21 [Example 3, hydrochloride]
Result block: > 30 µM

Query block: Please tell me the measured IC50 for Cc1ccc(Br)nc1C[C@H](N)c1ncccc1-c1noc2ccccc12 [Example 22, hydrochloride] ; system: HCN4 (Homo sapiens, UniProt Q9Y3Q4).
Result block: 10.3 µM
